// provenance: ChEMBL document CHEMBL3779826

Target: Acetylcholinesterase (Electrophorus electricus, UniProt O42275)
Sequence (O42275 whole entry): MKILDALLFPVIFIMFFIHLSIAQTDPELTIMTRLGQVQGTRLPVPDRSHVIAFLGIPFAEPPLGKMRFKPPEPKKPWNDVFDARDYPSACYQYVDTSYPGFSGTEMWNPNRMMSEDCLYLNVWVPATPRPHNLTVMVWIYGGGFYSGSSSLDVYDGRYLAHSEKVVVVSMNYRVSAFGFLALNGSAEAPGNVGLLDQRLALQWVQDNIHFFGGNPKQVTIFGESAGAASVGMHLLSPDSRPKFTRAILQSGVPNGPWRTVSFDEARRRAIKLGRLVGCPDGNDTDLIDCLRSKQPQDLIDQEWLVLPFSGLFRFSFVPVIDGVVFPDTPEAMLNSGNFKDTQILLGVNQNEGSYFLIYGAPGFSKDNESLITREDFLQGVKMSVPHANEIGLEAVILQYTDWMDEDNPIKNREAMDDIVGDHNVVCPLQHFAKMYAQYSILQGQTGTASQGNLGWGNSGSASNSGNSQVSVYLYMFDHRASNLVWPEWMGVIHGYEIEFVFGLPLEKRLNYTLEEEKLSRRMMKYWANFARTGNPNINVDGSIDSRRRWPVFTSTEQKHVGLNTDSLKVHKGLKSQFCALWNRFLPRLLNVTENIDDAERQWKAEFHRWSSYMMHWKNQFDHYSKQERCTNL
Experiment: Inhibition of Electrophorus electricus AChE using acetylthiocholine iodide as substrate preincubated for 20mins before the addition of substrate by Ellman's method
Details: read-out: Ki
reportedMetric: Ki

Query :: Return Ki (reported value) for this compound: C=CCCOC(=O)[C@]12CCC(C)(C)C[C@H]1C1=CC[C@@H]3[C@@]4(C)C[C@@H](O)[C@H](O)C(C)(C)[C@@H]4CC[C@@]3(C)[C@]1(C)CC2
Result :: 3.31 µM

Query :: Return Ki (reported value) for this compound: COC(=O)[C@]12CCC(C)(C)C[C@H]1C1=CC[C@@H]3[C@@]4(C)C[C@@H](O)[C@H](OS(N)(=O)=O)C(C)(C)[C@@H]4CC[C@@]3(C)[C@]1(C)CC2
Result :: 20.5 µM

Query :: Return Ki (reported value) for this compound: CC(=O)O[C@H]1C[C@]2(C)[C@H]3CC=C4[C@@H]5CC(C)(C)CC[C@]5(C(=O)NCc5ccccc5)CC[C@@]4(C)[C@]3(C)CC[C@H]2C(C)(C)[C@H]1OC(C)=O
Result :: > 10 µM

Query :: Return Ki (reported value) for this compound: CC1(C)CC[C@]2(C(=O)NCc3ccccc3)CC[C@]3(C)C(=CC[C@@H]4[C@@]5(C)C[C@H](OC(=O)CCl)[C@H](OC(=O)CCl)C(C)(C)[C@@H]5CC[C@]43C)[C@@H]2C1
Result :: 6.25 µM

Query :: Return Ki (reported value) for this compound: CC1(C)CC[C@]2(C(=O)OCc3ccc(Cl)cc3)CC[C@]3(C)C(=CC[C@@H]4[C@@]5(C)C[C@@H](O)[C@H](O)C(C)(C)[C@@H]5CC[C@]43C)[C@@H]2C1
Result :: > 30 µM

Query :: Return Ki (reported value) for this compound: CCNC(=O)[C@]12CCC(C)(C)C[C@H]1C1=CC[C@@H]3[C@@]4(C)C[C@@H](OC(C)=O)[C@H](OC(C)=O)C(C)(C)[C@@H]4CC[C@@]3(C)[C@]1(C)CC2
Result :: > 14 µM

Query :: Return Ki (reported value) for this compound: C=CCNC(=O)[C@]12CCC(C)(C)C[C@H]1C1=CC[C@@H]3[C@@]4(C)C[C@@H](OC(C)=O)[C@H](OC(C)=O)C(C)(C)[C@@H]4CC[C@@]3(C)[C@]1(C)CC2
Result :: > 20 µM

Query :: Return Ki (reported value) for this compound: CC1(C)CC[C@]2(C(=O)OCC3CCCCC3)CC[C@]3(C)C(=CC[C@@H]4[C@@]5(C)C[C@@H](O)[C@H](O)C(C)(C)[C@@H]5CC[C@]43C)[C@@H]2C1
Result :: 10 µM

Query :: Return Ki (reported value) for this compound: CC1(C)CC[C@]2(C(=O)OC/C=C\CCl)CC[C@]3(C)C(=CC[C@@H]4[C@@]5(C)C[C@@H](O)[C@H](O)C(C)(C)[C@@H]5CC[C@]43C)[C@@H]2C1
Result :: 22.5 µM

Query :: Return Ki (reported value) for this compound: CC1(C)CC[C@]2(C(=O)NCc3ccccc3)CC[C@]3(C)C(=CC[C@@H]4[C@@]5(C)C[C@@H](O)[C@H](O)C(C)(C)[C@@H]5CC[C@]43C)[C@@H]2C1
Result :: > 10 µM

Query :: Return Ki (reported value) for this compound: CC1(C)CC[C@]2(C(=O)OCc3ccccc3)CC[C@]3(C)C(=CC[C@@H]4[C@@]5(C)C[C@@H](O)[C@H](O)C(C)(C)[C@@H]5CC[C@]43C)[C@@H]2C1 [BENZYL MASLINATE]
Result :: > 14 µM
